Origin of measurements: patent EP0293500A1

ASSAYED_TARGET: thromboxane synthetase (Rattus norvegicus, UniProt P49430)
Construct: The platelets were isolated by centrifuging the PRP for 10 minutes at 1060xg; from tissue; host or cells: washed blood platelets from Okamoto-Aoki spontaneously hypertensive rats (SHR)
Sequence (P49430 whole entry): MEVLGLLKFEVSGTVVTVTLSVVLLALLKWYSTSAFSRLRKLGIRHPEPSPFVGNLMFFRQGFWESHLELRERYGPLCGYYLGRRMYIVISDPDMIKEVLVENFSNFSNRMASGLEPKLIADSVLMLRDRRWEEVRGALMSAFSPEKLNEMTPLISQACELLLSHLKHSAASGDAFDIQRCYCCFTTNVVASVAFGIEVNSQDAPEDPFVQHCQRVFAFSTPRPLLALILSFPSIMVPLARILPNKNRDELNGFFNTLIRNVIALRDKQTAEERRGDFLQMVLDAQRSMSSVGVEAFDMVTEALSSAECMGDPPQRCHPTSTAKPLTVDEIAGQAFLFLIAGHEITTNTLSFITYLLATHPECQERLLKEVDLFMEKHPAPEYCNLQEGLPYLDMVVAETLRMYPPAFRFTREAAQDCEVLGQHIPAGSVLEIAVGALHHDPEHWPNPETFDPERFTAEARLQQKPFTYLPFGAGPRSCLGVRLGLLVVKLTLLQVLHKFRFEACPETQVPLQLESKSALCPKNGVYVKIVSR
ASSAY_DETAILS: Inhibition of thromboxane (TX) formation (TXB2 radioimmunoassay) in washed rat platelets
Assay type: cell-based, Okamoto-Aoki spontaneously hypertensive rats (SHR)
CONDITIONS_USED: percent inhibition of TXB2 formation; drug at 10^-4M; SHR platelet suspension, 10 minutes at 37 C
MEASUREMENT_NAME: inhibition at 100 µM (%)

Some compounds with known inhibition at 100 µM results, for comparison:
COMPOUND: CC(Cn1ccnc1)Cn1cnc2ccc(Cl)cc2c1=O (centres unmarked)
ASSAYED_TARGET: thromboxane synthetase (Rattus norvegicus, UniProt P49430)
UNIT_NAME: %
inhibition at 100 µM: 94

COMPOUND: O=c1[nH]c2c(Cl)cc(Cl)cc2c(=O)n1CCCCn1ccnc1
ASSAYED_TARGET: thromboxane synthetase (Rattus norvegicus, UniProt P49430)
UNIT_NAME: %
inhibition at 100 µM: 89

COMPOUND: Cc1ccc2nnn(CC(C)Cn3ccnc3)c(=O)c2c1 (centres unmarked)
ASSAYED_TARGET: thromboxane synthetase (Rattus norvegicus, UniProt P49430)
UNIT_NAME: %
inhibition at 100 µM: 95

A: O=c1c2cc(Br)ccc2ncn1CCCCn1ccnc1
B: CC(CCn1c(=O)[nH]c2c(Cl)cc(Cl)cc2c1=O)n1ccnc1 (centres unmarked)
Input: Look at A and B . Which one has the lower recorded inhibition at 100 µM number? Kindly give the label for the entry you pick.
Output: B

----------
ASSAYED_TARGET: thromboxane synthetase (Rattus norvegicus)
Construct: The platelets were isolated by centrifuging the PRP for 10 minutes at 1060xg; from tissue; host or cells: washed blood platelets from Okamoto-Aoki spontaneously hypertensive rats (SHR)
ASSAY_DETAILS: Inhibition of thromboxane (TX) formation (TXB2 radioimmunoassay) in washed rat platelets
Format: cell-based, Okamoto-Aoki spontaneously hypertensive rats (SHR)
CONDITIONS_USED: percent inhibition of TXB2 formation; drug at 10^-4M; SHR platelet suspension, 10 minutes at 37 C
Excerpt: The platelet rich plasma (PRP) was separated. […] The inhibition of thromboxane (TX) formation was studied by determing the concentration of thromboxane […] (TXB2), the stable hydrolysis product of TXA2.
Structures can show the parent of a compound that is named as a salt.
MEASUREMENT_NAME: inhibition at 100 µM (%)

COMPOUND: CC(Cn1ccnc1)Cn1nnc2ccccc2c1=O (stereo not drawn) [Example 78, monohydrochloride]
UNIT_NAME: %
inhibition at 100 µM: 92
--
COMPOUND: CC(Cn1ccnc1)Cn1c(=O)[nH]c2c(Cl)cccc2c1=O (stereo not drawn)
UNIT_NAME: %
inhibition at 100 µM: 71
--
COMPOUND: O=c1c2cc(Cl)ccc2nnn1CCCCCCn1ccnc1
UNIT_NAME: %
inhibition at 100 µM: 73
--
COMPOUND: CC(Cn1ccnc1)Cn1nnc2ccc(Cl)cc2c1=O (stereo not drawn) [mono-hydrochloride]
UNIT_NAME: %
inhibition at 100 µM: 93
--
COMPOUND: O=c1c2cc(Cl)ccc2ncn1CCC(c1ccccc1)n1ccnc1 (stereo not drawn)
UNIT_NAME: %
inhibition at 100 µM: 79
--
COMPOUND: Cc1cn(CCCn2c(=O)[nH]c3ccc(Cl)cc3c2=O)cn1
UNIT_NAME: %
inhibition at 100 µM: 99
--
COMPOUND: O=c1c2ccccc2nnn1CCCCCn1ccnc1 [Example 101, monohydrochloride]
UNIT_NAME: %
inhibition at 100 µM: 67
--
COMPOUND: O=c1c2ccc(Cl)cc2nnn1CCCCn1ccnc1
UNIT_NAME: %
inhibition at 100 µM: 90
--
COMPOUND: O=c1c2cccc(C(F)(F)F)c2nnn1CCCCn1ccnc1
UNIT_NAME: %
inhibition at 100 µM: 86

----------
ASSAYED_TARGET: thromboxane synthetase (Rattus norvegicus)
Construct: The platelets were isolated by centrifuging the PRP for 10 minutes at 1060xg; from tissue; host or cells: washed blood platelets from Okamoto-Aoki spontaneously hypertensive rats (SHR)
ASSAY_DETAILS: Inhibition of thromboxane (TX) formation (TXB2 radioimmunoassay) in washed rat platelets
Assay type: cell-based, Okamoto-Aoki spontaneously hypertensive rats (SHR)
CONDITIONS_USED: percent inhibition of TXB2 formation; drug at 10^-4M; SHR platelet suspension, 10 minutes at 37 C
MEASUREMENT_NAME: inhibition at 100 µM (%)

MOLECULE: CC(CCn1cnc2ccc(Cl)cc2c1=O)n1ccnc1 (centres unmarked) [Example 140]
ASSAYED_TARGET: thromboxane synthetase (Rattus norvegicus)
UNIT_NAME: %
RECORDED_VALUE: 100
//
MOLECULE: CC(Cn1ccnc1)Cn1nnc2ccc(Br)cc2c1=O (centres unmarked) [Example 83]
ASSAYED_TARGET: thromboxane synthetase (Rattus norvegicus)
UNIT_NAME: %
RECORDED_VALUE: 99
//
MOLECULE: Cc1ccc2nnn(CCCCn3ccnc3)c(=O)c2c1 [Example 84]
ASSAYED_TARGET: thromboxane synthetase (Rattus norvegicus)
UNIT_NAME: %
RECORDED_VALUE: 95
//
MOLECULE: O=c1[nH]c2ccc(Br)cc2c(=O)n1CCCn1ccnc1 [Example 51]
ASSAYED_TARGET: thromboxane synthetase (Rattus norvegicus)
UNIT_NAME: %
RECORDED_VALUE: 100
//
MOLECULE: O=c1[nH]c2ccc(Cl)cc2c(=O)n1CCCCc1cccnc1 [Example 29]
ASSAYED_TARGET: thromboxane synthetase (Rattus norvegicus)
UNIT_NAME: %
RECORDED_VALUE: 100

----------
ASSAYED_TARGET: thromboxane synthetase (Rattus norvegicus)
Construct: The platelets were isolated by centrifuging the PRP for 10 minutes at 1060xg; from tissue; host or cells: washed blood platelets from Okamoto-Aoki spontaneously hypertensive rats (SHR)
ASSAY_DETAILS: Inhibition of thromboxane (TX) formation (TXB2 radioimmunoassay) in washed rat platelets
Assay type: cell-based, Okamoto-Aoki spontaneously hypertensive rats (SHR)
CONDITIONS_USED: percent inhibition of TXB2 formation; drug at 10^-4M; SHR platelet suspension, 10 minutes at 37 C
MEASUREMENT_NAME: inhibition at 100 µM (%)

COMPOUND: O=c1[nH]c2ccc(Cl)cc2c(=O)n1CCC(c1ccccc1)n1ccnc1 (centres unmarked)
inhibition at 100 µM [%]: 93

a: Cc1cn(CCCn2cnc3ccccc3c2=O)cn1
b: O=c1c2ccccc2ncn1CCCn1ccnc1
Input: Given a and b , report the one with the higher recorded inhibition at 100 µM. Kindly give the label for the entry you pick.
Output: a

----------
ASSAYED_TARGET: thromboxane synthetase (Rattus norvegicus)
Construct: The platelets were isolated by centrifuging the PRP for 10 minutes at 1060xg; from tissue; host or cells: washed blood platelets from Okamoto-Aoki spontaneously hypertensive rats (SHR)
ASSAY_DETAILS: Inhibition of thromboxane (TX) formation (TXB2 radioimmunoassay) in washed rat platelets
Assay type: cell-based, Okamoto-Aoki spontaneously hypertensive rats (SHR)
CONDITIONS_USED: percent inhibition of TXB2 formation; drug at 10^-4M; SHR platelet suspension, 10 minutes at 37 C
Description: The platelet rich plasma (PRP) was separated. […] The inhibition of thromboxane (TX) formation was studied by determing the concentration of thromboxane […] (TXB2), the stable hydrolysis product of TXA2.
MEASUREMENT_NAME: inhibition at 100 µM (%)

MOLECULE: CC(Cn1ccnc1)Cn1c(=O)[nH]c2c(Cl)cc(Cl)cc2c1=O (stereo not drawn)
UNIT_NAME: %
RECORDED_VALUE: 86

P: Cc1cn(CCCn2c(=O)[nH]c3ccccc3c2=O)cn1
Q: O=c1[nH]c2c(Cl)cccc2c(=O)n1CCCCn1ccnc1
Input: Look at P and Q . Which one has the lower recorded inhibition at 100 µM number? Kindly give the label for the entry you pick.
Output: Q
(Q: 62%, P: 98%)

----------
ASSAYED_TARGET: thromboxane synthetase (Rattus norvegicus)
Construct: The platelets were isolated by centrifuging the PRP for 10 minutes at 1060xg; from tissue; host or cells: washed blood platelets from Okamoto-Aoki spontaneously hypertensive rats (SHR)
ASSAY_DETAILS: Inhibition of thromboxane (TX) formation (TXB2 radioimmunoassay) in washed rat platelets
Type: cell-based, Okamoto-Aoki spontaneously hypertensive rats (SHR)
CONDITIONS_USED: percent inhibition of TXB2 formation; drug at 10^-4M; SHR platelet suspension, 10 minutes at 37 C
Structures can show the parent of a compound that is named as a salt.
MEASUREMENT_NAME: inhibition at 100 µM (%)

MOLECULE: O=c1c2cc(Cl)cc(Cl)c2nnn1CCCCn1ccnc1 [Example 81, monohydrochloride]
inhibition at 100 µM, %: 93
//
MOLECULE: O=c1[nH]c2ccccc2c(=O)n1CCCCc1cccnc1
inhibition at 100 µM, %: 99
//
MOLECULE: CC(Cn1ccnc1)Cn1c(=O)[nH]c2cc(Cl)ccc2c1=O (centres unmarked)
inhibition at 100 µM, %: 75

a: O=c1c2ccccc2ncn1CCCCc1cccnc1 [Example 135, dihydrochloride]
b: CC(CCn1c(=O)[nH]c2cc(Cl)ccc2c1=O)n1ccnc1 (centres unmarked)
Input: Given a and b , report the one with the higher recorded inhibition at 100 µM. Kindly give the label for the entry you pick.
Output: a
